- target.under.test: RARβ2 (Homo sapiens, UniProt P10826)
- Construct: expressed in transfected cells
- Sequence (P10826 1-448 isoform P10826-2): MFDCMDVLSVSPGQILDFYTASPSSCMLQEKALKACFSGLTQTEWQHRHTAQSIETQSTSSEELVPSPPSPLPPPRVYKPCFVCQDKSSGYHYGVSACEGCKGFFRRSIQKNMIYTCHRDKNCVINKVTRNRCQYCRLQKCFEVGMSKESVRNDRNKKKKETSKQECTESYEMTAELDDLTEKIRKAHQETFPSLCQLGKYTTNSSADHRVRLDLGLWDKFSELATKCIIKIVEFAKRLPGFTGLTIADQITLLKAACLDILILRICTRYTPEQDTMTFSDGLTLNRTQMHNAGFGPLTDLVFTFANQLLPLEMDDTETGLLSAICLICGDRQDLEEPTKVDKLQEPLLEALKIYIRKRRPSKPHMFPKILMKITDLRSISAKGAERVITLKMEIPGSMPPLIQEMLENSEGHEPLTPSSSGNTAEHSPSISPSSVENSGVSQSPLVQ
- assay.text: Receptor Selection and Amplification Technology (R-SAT) functional receptor assay
- Format: cell-based
- experimental.parameters: Table 1, efficacy relative to the maximal response of the reference ligand Am-580, read-out: % Eff.
measured.quantity: Emax (%)
Field: numeric (%). Do not append units.

Please give the documented Emax of CCCCCCCCc1ccc(-c2ccc(C(=O)n3cnc(NC(C)=O)n3)cc2)cc1 [Compound 15] 76

Dear colleague, please send me the reported Emax for CCCCCCCOc1ccc(-c2ccc(C(=O)O)cc2)cc1 [Compound 24] when you can. 58

Supply reported Emax belonging to this compound: CCCCCCc1ccc(-c2ccc(C(=O)Nc3ccc(C)cn3)cc2)cc1 [Compound 63] 36

Please indicate Emax recorded for CCCCCCCCc1ccc(-c2ccc(C(=O)O)cc2C)cc1 [Compound 1] 39

Using the record for CC(C)CCCCOc1ccc(-c2ccc(C(=O)O)cc2)cc1 [Compound 25] , state its measured Emax. 65

Hello, please tell me recorded Emax for this one: CCCCCc1ccc(-c2ccc(C(=O)O)cc2)cc1 [Compound 4] 44

Answer with reported Emax of CCCCNC(=O)COc1nc(-c2ccc(C(=O)O)cc2)sc1C [Compound 62] 37

Could you please provide reported Emax for CCCCCCCc1ccc(-c2ccc(C(=O)O)cc2F)cc1 [Compound 22] ? Thanks! 36

Give me measured Emax, please, for this compound: CCCCCCCCc1ccc(-c2ccc(C(=O)Nc3ccc(C)cn3)cc2)cc1 [Compound 29] 78
